experiment: in vivo; conditions: Sprague-Dawley, rat, plasma, iv, 15 mg/kg/day, Cmax, 15 mg/kg/day, 1-hour IV infusion twice daily, study day 14
Bridge positions count the residues as written; N and C are the ends. Square brackets hold non-standard residues; d marks the D form. Peptide text beside a SMILES is read from it. Dab = NCC[C@H](N)C(=O)O
reported endpoint: Cmax (ng/mL)
Give bare numbers, in ng/mL.

stdin: What does the data say about its Cmax? Entry: CC(=O)N[C@H](C(=O)N[C@H](CO)C(=O)N[C@H]1CCNC(=O)[C@H]([C@@H](C)O)NC(=O)[C@H](CCN)NC(=O)[C@H](CCN)NC(=O)[C@H](CC(C)C)NC(=O)[C@@H](Cc2ccccc2)NC(=O)[C@H](CCN)NC1=O)[C@@H](C)O [SPR741] (Ac-T[dS][Dab][Dab][dF]L[Dab][Dab]T; lactam 3-C)
stdout: 10800

* * *

experiment: in vivo; details: Sprague-Dawley, rat, plasma, iv, 15 mg/kg/day, AUC(0-24), 15 mg/kg/day, 1-hour IV infusion twice daily, study day 14
Bridge positions count the residues as written; N and C are the ends. Square brackets hold non-standard residues; d marks the D form. Peptide text beside a SMILES is read from it. Dab = NCC[C@H](N)C(=O)O
reported endpoint: AUC(0-t) (ng·h/mL)
Answers are plain numbers, in ng·h/mL.

stdin: What does the data say about its AUC(0-t)? Entry: CC(=O)N[C@H](C(=O)N[C@H](CO)C(=O)N[C@H]1CCNC(=O)[C@H]([C@@H](C)O)NC(=O)[C@H](CCN)NC(=O)[C@H](CCN)NC(=O)[C@H](CC(C)C)NC(=O)[C@@H](Cc2ccccc2)NC(=O)[C@H](CCN)NC1=O)[C@@H](C)O [SPR741] (Ac-T[dS][Dab][Dab][dF]L[Dab][Dab]T; lactam 3-C)
stdout: 32900

* * *

target: hERG potassium channel (Homo sapiens, UniProt Q12809); construct: expressed in transfected cells; assay: hERG current inhibition, single cell patch clamp in HEK293 cells; format: cell-based; conditions: human
Sequence (Q12809 whole entry): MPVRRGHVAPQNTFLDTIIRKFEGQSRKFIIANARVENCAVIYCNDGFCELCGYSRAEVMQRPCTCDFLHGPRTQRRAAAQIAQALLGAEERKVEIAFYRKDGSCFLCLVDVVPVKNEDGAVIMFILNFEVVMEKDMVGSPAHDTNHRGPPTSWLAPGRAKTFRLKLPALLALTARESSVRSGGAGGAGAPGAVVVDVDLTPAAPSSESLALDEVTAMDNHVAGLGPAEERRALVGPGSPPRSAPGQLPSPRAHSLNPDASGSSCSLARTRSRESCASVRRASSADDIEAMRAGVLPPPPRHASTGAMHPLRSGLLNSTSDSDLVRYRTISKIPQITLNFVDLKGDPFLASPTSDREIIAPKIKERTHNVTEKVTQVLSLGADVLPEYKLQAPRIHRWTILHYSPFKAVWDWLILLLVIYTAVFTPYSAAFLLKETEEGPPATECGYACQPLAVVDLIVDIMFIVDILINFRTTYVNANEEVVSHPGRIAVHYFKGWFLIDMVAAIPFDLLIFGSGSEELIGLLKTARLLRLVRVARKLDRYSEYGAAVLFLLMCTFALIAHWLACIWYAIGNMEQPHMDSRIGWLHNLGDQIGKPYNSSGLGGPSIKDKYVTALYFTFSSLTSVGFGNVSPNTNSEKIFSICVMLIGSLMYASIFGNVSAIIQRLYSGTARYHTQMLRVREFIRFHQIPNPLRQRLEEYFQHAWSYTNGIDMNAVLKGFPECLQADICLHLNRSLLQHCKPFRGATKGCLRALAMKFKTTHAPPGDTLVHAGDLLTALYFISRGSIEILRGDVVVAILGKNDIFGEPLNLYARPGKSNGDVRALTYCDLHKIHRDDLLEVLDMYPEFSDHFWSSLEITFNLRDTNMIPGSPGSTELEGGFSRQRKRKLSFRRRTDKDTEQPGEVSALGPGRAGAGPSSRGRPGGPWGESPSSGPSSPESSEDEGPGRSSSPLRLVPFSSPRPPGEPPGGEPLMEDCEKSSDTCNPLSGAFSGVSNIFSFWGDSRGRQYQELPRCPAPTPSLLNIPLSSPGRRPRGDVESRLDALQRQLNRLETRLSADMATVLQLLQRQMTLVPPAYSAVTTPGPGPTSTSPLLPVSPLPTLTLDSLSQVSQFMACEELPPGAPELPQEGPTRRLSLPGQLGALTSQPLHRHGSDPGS
Bridge positions count the residues as written; N and C are the ends. Square brackets hold non-standard residues; d marks the D form. Peptide text beside a SMILES is read from it. Dab = NCC[C@H](N)C(=O)O
reported endpoint: inhibition at 30 μg/mL (%)
Answers are plain numbers, in %.

stdin: What does the data say about its inhibition at 30 μg/mL? Entry: CC(=O)N[C@H](C(=O)N[C@H](CO)C(=O)N[C@H]1CCNC(=O)[C@H]([C@@H](C)O)NC(=O)[C@H](CCN)NC(=O)[C@H](CCN)NC(=O)[C@H](CC(C)C)NC(=O)[C@@H](Cc2ccccc2)NC(=O)[C@H](CCN)NC1=O)[C@@H](C)O [SPR741] (Ac-T[dS][Dab][Dab][dF]L[Dab][Dab]T; lactam 3-C)
stdout: -0.09

* * *

biological target: hERG potassium channel (Homo sapiens, UniProt Q12809); construct: expressed in transfected cells; test: hERG current inhibition, single cell patch clamp in HEK293 cells; assay type: cell-based; details: human
Bridge positions count the residues as written; N and C are the ends. Square brackets hold non-standard residues; d marks the D form. Peptide text beside a SMILES is read from it. Dab = NCC[C@H](N)C(=O)O
reported endpoint: inhibition at 100 μg/mL (%)
One number for each entry, in %.

stdin: What does the data say about its inhibition at 100 μg/mL? Entry: CC(=O)N[C@H](C(=O)N[C@H](CO)C(=O)N[C@H]1CCNC(=O)[C@H]([C@@H](C)O)NC(=O)[C@H](CCN)NC(=O)[C@H](CCN)NC(=O)[C@H](CC(C)C)NC(=O)[C@@H](Cc2ccccc2)NC(=O)[C@H](CCN)NC1=O)[C@@H](C)O [SPR741] (Ac-T[dS][Dab][Dab][dF]L[Dab][Dab]T; lactam 3-C)
stdout: 1.62

* * *

test: in vivo; conditions: male, monkey, plasma, 20 mg/kg
Bridge positions count the residues as written; N and C are the ends. Square brackets hold non-standard residues; d marks the D form. Peptide text beside a SMILES is read from it. Dab = NCC[C@H](N)C(=O)O
reported endpoint: Vd (L/kg)
Answers are plain numbers, in L/kg.

stdin: What does the data say about its Vd? Entry: CC(=O)N[C@H](C(=O)N[C@H](CO)C(=O)N[C@H]1CCNC(=O)[C@H]([C@@H](C)O)NC(=O)[C@H](CCN)NC(=O)[C@H](CCN)NC(=O)[C@H](CC(C)C)NC(=O)[C@@H](Cc2ccccc2)NC(=O)[C@H](CCN)NC1=O)[C@@H](C)O [SPR741] (Ac-T[dS][Dab][Dab][dF]L[Dab][Dab]T; lactam 3-C)
stdout: 0.238

* * *

assay: in vivo; conditions: Sprague-Dawley, rat, plasma, iv, 15 mg/kg/day, AUC(0-24), 15 mg/kg/day, 1-hour IV infusion twice daily, study day 1
Bridge positions count the residues as written; N and C are the ends. Square brackets hold non-standard residues; d marks the D form. Peptide text beside a SMILES is read from it. Dab = NCC[C@H](N)C(=O)O
reported endpoint: AUC(0-t) (ng·h/mL)
Answers are plain numbers, in ng·h/mL.

stdin: What does the data say about its AUC(0-t)? Entry: CC(=O)N[C@H](C(=O)N[C@H](CO)C(=O)N[C@H]1CCNC(=O)[C@H]([C@@H](C)O)NC(=O)[C@H](CCN)NC(=O)[C@H](CCN)NC(=O)[C@H](CC(C)C)NC(=O)[C@@H](Cc2ccccc2)NC(=O)[C@H](CCN)NC1=O)[C@@H](C)O [SPR741] (Ac-T[dS][Dab][Dab][dF]L[Dab][Dab]T; lactam 3-C)
stdout: 47400

* * *

target: hERG potassium channel (Homo sapiens); construct: expressed in transfected cells; assay: hERG current inhibition, single cell patch clamp in HEK293 cells; type: cell-based; settings: human
Bridge positions count the residues as written; N and C are the ends. Square brackets hold non-standard residues; d marks the D form. Peptide text beside a SMILES is read from it. Dab = NCC[C@H](N)C(=O)O
reported endpoint: inhibition at 300 μg/mL (%)
Numbers only, in %.

stdin: What does the data say about its inhibition at 300 μg/mL? Entry: CC(=O)N[C@H](C(=O)N[C@H](CO)C(=O)N[C@H]1CCNC(=O)[C@H]([C@@H](C)O)NC(=O)[C@H](CCN)NC(=O)[C@H](CCN)NC(=O)[C@H](CC(C)C)NC(=O)[C@@H](Cc2ccccc2)NC(=O)[C@H](CCN)NC1=O)[C@@H](C)O [SPR741] (Ac-T[dS][Dab][Dab][dF]L[Dab][Dab]T; lactam 3-C)
stdout: 3.87

* * *

assay: in vivo; settings: Sprague-Dawley, rat, plasma, iv, 10 mg/kg/day, AUC(0-24), 10 mg/kg/day, 1-hour IV infusion twice daily, study day 14
Bridge positions count the residues as written; N and C are the ends. Square brackets hold non-standard residues; d marks the D form. Peptide text beside a SMILES is read from it. Dab = NCC[C@H](N)C(=O)O
reported endpoint: AUC(0-t)
Show the value, then the unit it is measured in.

stdin: What does the data say about its AUC(0-t)? Entry: CC(=O)N[C@H](C(=O)N[C@H](CO)C(=O)N[C@H]1CCNC(=O)[C@H]([C@@H](C)O)NC(=O)[C@H](CCN)NC(=O)[C@H](CCN)NC(=O)[C@H](CC(C)C)NC(=O)[C@@H](Cc2ccccc2)NC(=O)[C@H](CCN)NC1=O)[C@@H](C)O [SPR741] (Ac-T[dS][Dab][Dab][dF]L[Dab][Dab]T; lactam 3-C)
stdout: 20300 ng·h/mL

* * *

assay: in vivo; settings: Sprague-Dawley, rat, plasma, iv, 10 mg/kg/day, AUC(0-24), 10 mg/kg/day, 1-hour IV infusion twice daily, study day 1
Bridge positions count the residues as written; N and C are the ends. Square brackets hold non-standard residues; d marks the D form. Peptide text beside a SMILES is read from it. Dab = NCC[C@H](N)C(=O)O
reported endpoint: AUC(0-t) (ng·h/mL)
Answers are plain numbers, in ng·h/mL.

stdin: What does the data say about its AUC(0-t)? Entry: CC(=O)N[C@H](C(=O)N[C@H](CO)C(=O)N[C@H]1CCNC(=O)[C@H]([C@@H](C)O)NC(=O)[C@H](CCN)NC(=O)[C@H](CCN)NC(=O)[C@H](CC(C)C)NC(=O)[C@@H](Cc2ccccc2)NC(=O)[C@H](CCN)NC1=O)[C@@H](C)O [SPR741] (Ac-T[dS][Dab][Dab][dF]L[Dab][Dab]T; lactam 3-C)
stdout: 25000

* * *

assay: in vivo; conditions: male, rat, plasma, 10 mg/kg
Bridge positions count the residues as written; N and C are the ends. Square brackets hold non-standard residues; d marks the D form. Peptide text beside a SMILES is read from it. Dab = NCC[C@H](N)C(=O)O
reported endpoint: clearance
Show the value, then the unit it is measured in.

stdin: What does the data say about its clearance? Entry: CC(=O)N[C@H](C(=O)N[C@H](CO)C(=O)N[C@H]1CCNC(=O)[C@H]([C@@H](C)O)NC(=O)[C@H](CCN)NC(=O)[C@H](CCN)NC(=O)[C@H](CC(C)C)NC(=O)[C@@H](Cc2ccccc2)NC(=O)[C@H](CCN)NC1=O)[C@@H](C)O [SPR741] (Ac-T[dS][Dab][Dab][dF]L[Dab][Dab]T; lactam 3-C)
stdout: 7.05 mL/min/kg

Just for reference, patent US20190192618A1 is where these values come from.
